Tested on: phosphorylation of AKT (pAKT) in T47D cells expressing mutant PI3Ka (H1047R)
Assay: In vitro cell pAKT (Ser473) HTRF, T47D cells
Format: cell-based
Conditions: Homo sapiens, T47D, 6 h, cellular pAKT, T47D cells, mutant PI3Ka (H1047R), 6 hours; read-out: Avg T-47D IC50
READOUT_LABEL: IC50

SMILES_INPUT	IC50
Cc1cnc(-c2cc3c([C@@H](C)Nc4ccccc4C(=O)O)cc(F)cc3c(=O)n2C)s1	1 to 500 nM
C[C@@H](Nc1ccccc1C(=O)O)c1cc(F)cc2c(=O)n(C)c(-c3cc(F)c4nn(C)cc4c3)cc12	1 to 500 nM

In: # query: IC50 of entry C[C@@H](Nc1ccccc1C(=O)O)c1cc(F)cc2c(=O)n(C)c(Br)cc12
Out: 500 to 2000 nM

In: Field entry: Cc1cc([C@@H](C)Nc2ccccc2C(=O)O)c2cc(N3CCN(c4ccc(C)nn4)CC3)n(C)c(=O)c2c1
Out: 1 to 500 nM
